Numbers sourced from patent US7182945.

Biological target: T1, human leukocyte elastase (hLE) (human), P08246
T1 chain: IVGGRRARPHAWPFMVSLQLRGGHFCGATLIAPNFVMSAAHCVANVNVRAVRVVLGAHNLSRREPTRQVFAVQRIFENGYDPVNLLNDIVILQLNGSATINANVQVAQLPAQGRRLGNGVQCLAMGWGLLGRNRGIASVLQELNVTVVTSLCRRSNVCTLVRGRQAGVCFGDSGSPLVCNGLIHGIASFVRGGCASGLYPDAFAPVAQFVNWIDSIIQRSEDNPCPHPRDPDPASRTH
Conditions: modification not given
measure: Ki (nM)
State just the number; it will be interpreted in nM.

Which Ki is reported for this binder? EILIFWSKDIGY [CRP62-73 (peptide 13)]
1100
